Data origin: PubChem BioAssay (NCATS)

# Assay: Cell Viability - LYMP2-003 (AID 965);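 also: cells exposed to compounds for 24 h before reading; nearly all actives have a fitted effect of over 50% in size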
# Test settings: LYMP2-003 lymphoblastoid cell viability; series mostly up to 92.2 µM
Results filed as inconclusive are left out. Activity calls are given as the source filed them. Calls follow the shape of the dose curve; as a rule, active = well fitted cell-killing curve with a large enough effect; inconclusive = small, poorly fitted or top-dose-only effect, or effect the other way; inactive = flat fitted curve, though single readings scatter.
Allowed answers: active, inactive

Solved entries:
Cc1ccnc2c1NC(=O)c1cccnc1N2C1CC1 ... inactive
CN(C)c1ccc(C(=C2C=CC(=[N+](C)C)C=C2)c2ccc(N(C)C)cc2)cc1 ... active
COc1ccc2cc3[n+](cc2c1OC)CCc1cc2c(cc1-3)OCO2 ... inactive
Cc1nnc(NS(=O)(=O)c2ccc(N)cc2)s1 ... inactive
O=C(N[C@H](CO)[C@H](O)c1ccc([N+](=O)[O-])cc1)C(Cl)Cl ... inactive

What did the test return for Cc1cc(NS(=O)(=O)c2ccc(N)cc2)no1 ?
inactive

Outcome logged for O=C(O)c1cc(=O)[nH]c(=O)[nH]1 in this assay:
inactive

Recorded test call requested for CC1=NN(c2ccccc2)C(=O)C1
inactive

In this assay, the call recorded for Cc1ncc([N+](=O)[O-])n1CCO was what?
inactive

Please share the test call associated with CCc1cc(C(N)=S)ccn1 .
inactive

For Cc1noc(NS(=O)(=O)c2ccc(N)cc2)c1C , which call appears in the assay record?
inactive

Record lookup: outcome of this test for NC(N)=NC(N)=NCCc1ccccc1 ?
inactive

How was C[C@]12C=CC(=O)C=C1CC[C@@H]1[C@@H]2C(=O)C[C@@]2(C)[C@H]1CC[C@]2(O)C(=O)CO classified in this test?
inactive
